Attribution: the supplement of paper PMC9112550

Test system: Escherichia coli TOP10
Assay: shrunken log2 fold change of peptide-encoding DNA abundance (4.5 h post-induction vs induction); higher = less antimicrobial activity (less host growth inhibition)
Conditions: time post-induction: 4.5 h; library: site-saturation at positions 5, 18, 19, 20
Threshold rule: shrunken log2 fold change greater than or equal to 0.01 is criterion met; below that, criterion not met.

RRIRARPPRLPRPRPRPRTWPRP; criterion met
RRIRDRPPRLPRPRPRPTWKPRP; criterion met
RRIRWRPPRLPRPRPRPPQLPRP; criterion met

Test whether the sequence RRIRARPPRLPRPRPRPVPAPRP records shrunken log2 fold change of 0.01 or higher.
criterion met

Test whether the sequence RRIRVRPPRLPRPRPRPAPVPRP records shrunken log2 fold change of 0.01 or higher.
criterion met

Test whether the sequence RRIRPRPPRLPRPRPRPHKWPRP records shrunken log2 fold change of 0.01 or higher.
criterion not met

Test whether the sequence RRIRGRPPRLPRPRPRPFDCPRP records shrunken log2 fold change of 0.01 or higher.
criterion not met

Test whether the sequence RRIRERPPRLPRPRPRPNDCPRP records shrunken log2 fold change of 0.01 or higher.
criterion not met

----------
System: Escherichia coli TOP10
Test: shrunken log2 fold change of peptide-encoding DNA abundance (4.5 h post-induction vs induction); higher = less antimicrobial activity (less host growth inhibition)
Details: time post-induction: 4.5 h; library: site-saturation at positions 5, 18, 19, 20
Listed next: entries and their corresponding shrunken log2 fold change.
Number, no unit, nothing else.

Some solved cases for reference:
RRIRGRPPRLPRPRPRPNIFPRP; 0.398
RRIRSRPPRLPRPRPRPRWNPRP; 0.0205
RRIRRRPPRLPRPRPRPGWLPRP; 0.427

Item RRIRARPPRLPRPRPRPMGIPRP with Escherichia coli TOP10 - shrunken log2 fold change?
-0.00146

Item RRIRIRPPRLPRPRPRPQKTPRP with Escherichia coli TOP10 - shrunken log2 fold change?
-0.168

Item RRIRDRPPRLPRPRPRPVCAPRP with Escherichia coli TOP10 - shrunken log2 fold change?
1.12

Item RRIRDRPPRLPRPRPRPCWSPRP with Escherichia coli TOP10 - shrunken log2 fold change?
-0.00281

Item RRIRDRPPRLPRPRPRPLNEPRP with Escherichia coli TOP10 - shrunken log2 fold change?
-0.188

----------
Tested on: Escherichia coli TOP10;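 further: peptides expressed intracellularly from a pBAD plasmid library in pooled LB shake-flask culture, induced with 0.3% L-arabinose, DNA abundance read by NGS, three biological replicates, DESeq2 with apeglm shrinkage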
Assay: shrunken log2 fold change of peptide-encoding DNA abundance (4.5 h post-induction vs induction); higher = less antimicrobial activity (less host growth inhibition)
Details: time post-induction: 4.5 h; library: site-saturation at positions 5, 18, 19, 20
Threshold rule: shrunken log2 fold change greater than or equal to 0.02 is true (1); below that, false (0).

RRIRCRPPRLPRPRPRPPYYPRP; false (0)

Test whether the sequence RRIRCRPPRLPRPRPRPPWNPRP records shrunken log2 fold change of 0.02 or higher.
false (0)

Test whether the sequence RRIRGRPPRLPRPRPRPQECPRP records shrunken log2 fold change of 0.02 or higher.
true (1)

Test whether the sequence RRIRPRPPRLPRPRPRPSEGPRP records shrunken log2 fold change of 0.02 or higher.
false (0)

Test whether the sequence RRIRRRPPRLPRPRPRPICHPRP records shrunken log2 fold change of 0.02 or higher.
true (1)

Test whether the sequence RRIRHRPPRLPRPRPRPEFYPRP records shrunken log2 fold change of 0.02 or higher.
false (0)

Test whether the sequence RRIRLRPPRLPRPRPRPPHDPRP records shrunken log2 fold change of 0.02 or higher.
true (1)

Test whether the sequence RRIRFRPPRLPRPRPRPFVYPRP records shrunken log2 fold change of 0.02 or higher.
false (0)

Test whether the sequence RRIRIRPPRLPRPRPRPVEMPRP records shrunken log2 fold change of 0.02 or higher.
false (0)
